- tested.system: Luciferin 4-monooxygenase (Photinus pyralis)
- experiment.notes: FLuc activators, initial screening, artefact control for FLuc-dependent activation tests, biochemical, ATPlite luminescence (AID 1027)
- protocol.conditions: ATPlite luciferase biochemical, 10 min, at 10 µM, stronger effect = higher value, 0 = ATP-free wells, 1 = DMSO control
Hit rate of the full screen: of about 200,000 compounds, fewer than 10 were called active. These entries were drawn from the full list.
Consider the following molecules; for each one, report its activation factor.
Numbers only.

Sample answers from the record:
molecule: CCNC(=S)N1CCN(c2ncccn2)CC1
tested.system: Luciferin 4-monooxygenase (Photinus pyralis)
activation factor: 1
//
molecule: CC(NC(=S)Nc1ccc(S(N)(=O)=O)cc1)c1ccc2c(c1)OCO2 (stereo unspecified)
tested.system: Luciferin 4-monooxygenase (Photinus pyralis)
activation factor: 1.1
//
molecule: Clc1ccc(-c2cc(C3CCNCC3)[nH]n2)c(Cl)c1
tested.system: Luciferin 4-monooxygenase (Photinus pyralis)
activation factor: 1
//
molecule: CN(c1ccccc1)S(=O)(=O)c1ccc(Cl)c(C(=O)NCCc2c[nH]c3ccccc23)c1
tested.system: Luciferin 4-monooxygenase (Photinus pyralis)
activation factor: 1

For each of the items listed, what is its activation factor?
1. Cc1ccccc1C1CC(c2cccs2)=NN1S(C)(=O)=O (stereo unspecified)
2. C/C(=N\Nc1ccc([N+](=O)[O-])cc1)c1ccc(-n2nncc2C(C)(C)C)cc1

Response:
1.1
1
